# target-under-test: ryanodine receptor (skeletal sarcoplasmic reticulum membrane vesicles) (Oryctolagus cuniculus, UniProt P11716)
# Construct: skeletal sarcoplasmic reticulum membrane vesicles; from tissue; host or cells: skeletal muscle sarcoplasmic reticulum membrane vesicles
# Sequence (P11716 whole entry): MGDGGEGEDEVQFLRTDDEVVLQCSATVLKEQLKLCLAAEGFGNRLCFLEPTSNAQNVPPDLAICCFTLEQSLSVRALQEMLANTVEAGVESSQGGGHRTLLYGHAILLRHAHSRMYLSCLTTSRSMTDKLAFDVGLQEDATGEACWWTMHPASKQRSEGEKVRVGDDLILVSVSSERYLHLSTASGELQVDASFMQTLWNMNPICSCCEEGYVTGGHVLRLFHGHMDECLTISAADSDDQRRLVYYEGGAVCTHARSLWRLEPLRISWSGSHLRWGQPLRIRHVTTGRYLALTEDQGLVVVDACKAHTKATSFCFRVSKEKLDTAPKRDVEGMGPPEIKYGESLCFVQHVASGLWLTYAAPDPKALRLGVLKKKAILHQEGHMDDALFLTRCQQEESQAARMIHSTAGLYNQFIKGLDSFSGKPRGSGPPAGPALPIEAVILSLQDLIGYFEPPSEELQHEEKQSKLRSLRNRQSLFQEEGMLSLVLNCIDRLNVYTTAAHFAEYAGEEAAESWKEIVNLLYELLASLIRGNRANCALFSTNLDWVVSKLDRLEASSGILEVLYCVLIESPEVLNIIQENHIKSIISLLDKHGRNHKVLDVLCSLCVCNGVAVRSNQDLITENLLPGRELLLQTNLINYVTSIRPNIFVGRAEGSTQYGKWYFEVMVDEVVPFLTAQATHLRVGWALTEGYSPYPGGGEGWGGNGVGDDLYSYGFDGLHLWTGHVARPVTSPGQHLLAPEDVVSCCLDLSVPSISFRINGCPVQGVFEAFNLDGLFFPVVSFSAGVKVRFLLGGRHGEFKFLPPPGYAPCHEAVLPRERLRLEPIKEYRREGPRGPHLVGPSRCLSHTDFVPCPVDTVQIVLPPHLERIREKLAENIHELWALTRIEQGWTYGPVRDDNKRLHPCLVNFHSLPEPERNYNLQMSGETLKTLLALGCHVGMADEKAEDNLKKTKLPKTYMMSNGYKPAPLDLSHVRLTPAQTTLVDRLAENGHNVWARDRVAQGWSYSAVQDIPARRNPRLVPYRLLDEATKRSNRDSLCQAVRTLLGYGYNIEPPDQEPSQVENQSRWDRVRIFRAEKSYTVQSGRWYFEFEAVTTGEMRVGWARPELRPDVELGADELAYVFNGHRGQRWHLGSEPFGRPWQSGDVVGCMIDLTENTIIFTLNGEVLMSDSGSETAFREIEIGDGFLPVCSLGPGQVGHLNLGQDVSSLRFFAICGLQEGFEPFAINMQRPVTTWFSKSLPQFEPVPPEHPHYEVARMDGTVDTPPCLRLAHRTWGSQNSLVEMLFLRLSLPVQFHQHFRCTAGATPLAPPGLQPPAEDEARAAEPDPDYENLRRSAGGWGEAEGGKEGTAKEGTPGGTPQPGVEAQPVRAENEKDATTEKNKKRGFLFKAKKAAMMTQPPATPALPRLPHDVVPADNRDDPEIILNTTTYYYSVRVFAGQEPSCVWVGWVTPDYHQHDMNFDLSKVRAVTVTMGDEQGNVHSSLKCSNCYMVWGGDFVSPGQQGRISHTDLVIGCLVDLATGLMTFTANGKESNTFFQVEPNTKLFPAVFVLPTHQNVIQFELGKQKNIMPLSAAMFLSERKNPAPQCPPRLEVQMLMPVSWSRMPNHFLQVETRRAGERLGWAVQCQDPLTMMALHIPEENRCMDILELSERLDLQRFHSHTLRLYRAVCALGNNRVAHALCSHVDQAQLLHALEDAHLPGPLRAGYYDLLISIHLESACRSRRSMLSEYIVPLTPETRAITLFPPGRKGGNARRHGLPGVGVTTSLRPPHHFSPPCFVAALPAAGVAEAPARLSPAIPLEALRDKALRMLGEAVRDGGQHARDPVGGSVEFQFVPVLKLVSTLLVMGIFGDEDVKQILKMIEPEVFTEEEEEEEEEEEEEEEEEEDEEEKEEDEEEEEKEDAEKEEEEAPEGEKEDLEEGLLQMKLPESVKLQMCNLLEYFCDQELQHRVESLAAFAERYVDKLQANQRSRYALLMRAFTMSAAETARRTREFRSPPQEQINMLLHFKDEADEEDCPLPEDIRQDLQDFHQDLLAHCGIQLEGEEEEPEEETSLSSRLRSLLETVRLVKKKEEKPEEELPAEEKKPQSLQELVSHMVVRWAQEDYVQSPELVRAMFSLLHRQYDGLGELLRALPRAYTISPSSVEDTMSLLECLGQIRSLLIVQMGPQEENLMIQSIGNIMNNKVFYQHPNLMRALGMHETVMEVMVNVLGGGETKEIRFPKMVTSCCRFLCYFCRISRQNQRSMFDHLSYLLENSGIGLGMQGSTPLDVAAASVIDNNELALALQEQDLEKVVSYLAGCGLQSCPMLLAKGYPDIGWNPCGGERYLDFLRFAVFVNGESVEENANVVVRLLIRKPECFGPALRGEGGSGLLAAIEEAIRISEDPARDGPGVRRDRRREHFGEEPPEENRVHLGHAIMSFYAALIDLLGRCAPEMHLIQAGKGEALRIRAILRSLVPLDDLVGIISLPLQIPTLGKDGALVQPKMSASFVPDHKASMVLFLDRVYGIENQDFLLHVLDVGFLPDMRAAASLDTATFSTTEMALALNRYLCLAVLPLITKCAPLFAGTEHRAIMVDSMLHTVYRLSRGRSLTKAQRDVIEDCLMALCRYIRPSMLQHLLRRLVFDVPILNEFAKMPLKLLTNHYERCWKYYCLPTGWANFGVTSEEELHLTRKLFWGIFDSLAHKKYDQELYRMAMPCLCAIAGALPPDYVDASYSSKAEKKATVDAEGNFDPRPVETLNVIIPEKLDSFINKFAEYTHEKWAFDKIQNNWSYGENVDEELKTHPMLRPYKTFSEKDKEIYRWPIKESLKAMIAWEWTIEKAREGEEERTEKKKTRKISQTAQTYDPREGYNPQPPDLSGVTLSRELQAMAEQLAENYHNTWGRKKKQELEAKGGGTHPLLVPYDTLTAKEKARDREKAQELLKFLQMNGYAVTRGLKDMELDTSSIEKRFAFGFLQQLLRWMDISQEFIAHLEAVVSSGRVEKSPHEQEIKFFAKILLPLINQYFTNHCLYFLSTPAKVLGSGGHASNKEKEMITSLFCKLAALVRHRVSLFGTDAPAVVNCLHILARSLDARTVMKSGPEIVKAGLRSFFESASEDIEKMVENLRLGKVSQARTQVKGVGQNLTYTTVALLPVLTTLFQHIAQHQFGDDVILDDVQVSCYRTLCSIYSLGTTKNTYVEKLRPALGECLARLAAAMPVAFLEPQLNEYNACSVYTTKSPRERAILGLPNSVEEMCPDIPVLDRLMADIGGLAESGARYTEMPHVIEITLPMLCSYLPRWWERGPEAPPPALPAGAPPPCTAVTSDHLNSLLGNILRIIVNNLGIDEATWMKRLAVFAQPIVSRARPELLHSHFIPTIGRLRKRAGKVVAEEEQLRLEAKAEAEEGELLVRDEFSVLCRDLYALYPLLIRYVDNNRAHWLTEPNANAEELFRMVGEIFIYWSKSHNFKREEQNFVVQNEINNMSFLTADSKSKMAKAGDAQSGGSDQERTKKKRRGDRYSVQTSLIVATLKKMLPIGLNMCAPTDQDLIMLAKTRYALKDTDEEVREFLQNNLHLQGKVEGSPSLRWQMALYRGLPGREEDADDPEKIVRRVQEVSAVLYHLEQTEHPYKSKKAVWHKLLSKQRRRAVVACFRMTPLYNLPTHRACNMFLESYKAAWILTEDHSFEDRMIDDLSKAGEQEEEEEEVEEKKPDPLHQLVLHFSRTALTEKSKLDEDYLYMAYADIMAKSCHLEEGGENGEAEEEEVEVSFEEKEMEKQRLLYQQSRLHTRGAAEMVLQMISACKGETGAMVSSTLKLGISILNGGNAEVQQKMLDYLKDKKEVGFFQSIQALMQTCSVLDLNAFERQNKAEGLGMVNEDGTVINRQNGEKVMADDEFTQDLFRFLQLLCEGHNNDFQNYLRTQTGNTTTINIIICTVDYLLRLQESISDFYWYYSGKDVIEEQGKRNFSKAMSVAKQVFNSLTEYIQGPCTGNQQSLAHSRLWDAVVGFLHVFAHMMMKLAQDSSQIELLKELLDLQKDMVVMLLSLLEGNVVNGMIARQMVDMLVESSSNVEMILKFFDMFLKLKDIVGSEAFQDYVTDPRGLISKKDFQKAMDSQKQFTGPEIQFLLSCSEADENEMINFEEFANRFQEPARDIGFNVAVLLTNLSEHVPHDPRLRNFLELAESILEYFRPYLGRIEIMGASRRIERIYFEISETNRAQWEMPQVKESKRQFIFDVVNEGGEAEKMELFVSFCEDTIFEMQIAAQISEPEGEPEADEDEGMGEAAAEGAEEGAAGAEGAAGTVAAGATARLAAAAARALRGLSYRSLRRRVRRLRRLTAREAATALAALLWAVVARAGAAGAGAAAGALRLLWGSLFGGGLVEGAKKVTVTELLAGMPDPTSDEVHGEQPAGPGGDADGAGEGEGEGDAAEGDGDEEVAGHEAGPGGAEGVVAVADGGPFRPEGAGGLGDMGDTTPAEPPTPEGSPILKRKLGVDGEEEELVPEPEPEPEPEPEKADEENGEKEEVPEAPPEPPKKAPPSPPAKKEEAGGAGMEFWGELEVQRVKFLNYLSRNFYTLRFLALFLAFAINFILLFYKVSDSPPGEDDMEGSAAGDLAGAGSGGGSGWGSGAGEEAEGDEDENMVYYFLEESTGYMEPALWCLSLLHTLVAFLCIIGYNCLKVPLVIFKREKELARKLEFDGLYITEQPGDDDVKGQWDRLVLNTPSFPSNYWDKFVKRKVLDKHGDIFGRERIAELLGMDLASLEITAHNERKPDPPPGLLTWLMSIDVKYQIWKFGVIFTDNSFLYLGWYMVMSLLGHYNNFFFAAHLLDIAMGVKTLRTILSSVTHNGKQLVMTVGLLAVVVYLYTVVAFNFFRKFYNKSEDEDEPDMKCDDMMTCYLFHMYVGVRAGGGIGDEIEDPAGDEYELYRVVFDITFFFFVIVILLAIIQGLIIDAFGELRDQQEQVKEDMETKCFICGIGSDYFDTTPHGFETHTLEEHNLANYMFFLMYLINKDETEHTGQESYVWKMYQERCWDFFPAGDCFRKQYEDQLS
# method-summary: biochemical
# Format: binding
# run-parameters: VI prepared from V; read-out: KD
pKd: −log10 of the molar value.
measured-attribute: pKd

{"compound": "CC1CCC2(O)C3(C)CC4(O)OC2(C1OC(=O)CCNC(=O)c1cc(N=[N+]=[N-])ccc1[N+](=O)[O-])C1(O)C3(O)C(OC(=O)c2ccc[nH]2)C(O)(C(C)C)C41C (stereo not shown)", "measured-attribute": "pKd", "result-number": 7.85}
